tested on: SK-OV-3; experiment: Antiproliferative activity against human SK-OV-3 cells assessed as inhibition of cell growth incubated for 72 hrs by MTT assay; assay type: functional, cell-based; conditions: SK-OV-3, 72 h
# IC50 per entry
Give the value in µM but do not write µM after it.

Here's what some known entries look like.
COc1ccc2c(c1)CC[C@@H]1[C@@H]2CC[C@]2(C)/C(=N/OC(=O)c3ccc(C[Se]C#N)cc3)CC[C@@H]12: 69
C[C@]12CC[C@@H]3c4cc(NC(=O)CCCCCCCCC[Se]C#N)c(O)cc4CC[C@H]3[C@@H]1CCC2=O: 14.4
C[C@]12CC[C@@H]3c4ccc(OCC[Se]C#N)cc4CC[C@H]3[C@@H]1CCC2=O: 60.3

Okay, next one:
// query # lookup: IC50 of COc1ccc2c(c1)CC[C@@H]1[C@@H]2CC[C@]2(C)/C(=N/OC(=O)C[Se]C#N)CC[C@@H]12
// result 53.4
